Tested on: A498 renal
Assay: NCI tumour cell line growth inhibition, 48 h
TGI values by entry
REPORTED PROPERTY: TGI

# COMPOUND, RESULT
measured = [
    ("O=C(c1ccccc1)C(C(=O)c1ccccc1)c1nc2ccccc2sc1=O", "> 25 µM"),
    ("COc1ccc2nc3ccccc3c(NCCN(C)CCCl)c2c1", "3.02 µM"),
    ("Cc1cc(C)c(-c2cc(O)c(-c3c(C)cc(C)cc3C)cc2O)c(C)c1", "> 100 µM"),
    ("O=C(O)CC(O)(c1ccccc1C(=O)O)c1cccc2ccccc12 (stereo unspecified)", "> 100 µM"),
    ("CN(C)CC1CCC(=C2CCCC2)C1=O (stereo unspecified)", "35.4 µM"),
    ("O=C(/C=C/c1ccsc1)c1ccc(Cl)cc1", "> 100 µM"),
]
